Reference for the values: patent US8729098B2

- Test system: Trichophyton Rubrum (ATCC 28188)
Measured Quantity: MIC (µg/mL)
Answers are plain numbers, in µg/mL.

For orientation, consider the following solved cases.
* O=C(c1ccc2cccnc2c1O)N1CCOc2ccccc21 [Example 74] | 1
* O=C(c1ccc2cccnc2c1O)N1CCCc2ccc(F)cc21 [Example 61] | 1
* CN(C(=O)c1ccc2cccnc2c1O)c1ccc(Br)cc1 [Example 29] | 2
* O=C(c1ccc2cccnc2c1O)N1CCCc2c(F)cc(F)cc21 [Example 70] | 1
* O=C(c1ccc2cccnc2c1O)N1C2CCCCC2C2CCCCC21 (centres unmarked) [Example 49] | 0.71
* CN(Cc1ccc(Cl)cc1)C(=O)c1ccc2cccnc2c1O [Example 56] | 2

Please state, for each entry, its recorded MIC.
1. O=C(c1ccc2cccnc2c1O)N1CCCc2cc(F)ccc21 [Example 72]
2. O=C(c1ccc2cccnc2c1O)N1CCCc2c(F)cccc21 [Example 71]
3. O=C(c1ccc2cccnc2c1O)N1CCC2CCCCC2C1 (centres unmarked) [Example 6]

1. 1
2. 1
3. 1.41

Please state, for each entry, its recorded MIC.
1. O=C(c1ccc2cccnc2c1O)N1CCCc2c(Cl)ccc(O)c21 [Example 73]
2. O=C(c1ccc2cccnc2c1O)N1Cc2ccccc2C1 [Example 10]

1. 2
2. 1
